Target: 5-HT1A receptor (Rattus norvegicus, UniProt P19327)
Sequence (P19327 1-422): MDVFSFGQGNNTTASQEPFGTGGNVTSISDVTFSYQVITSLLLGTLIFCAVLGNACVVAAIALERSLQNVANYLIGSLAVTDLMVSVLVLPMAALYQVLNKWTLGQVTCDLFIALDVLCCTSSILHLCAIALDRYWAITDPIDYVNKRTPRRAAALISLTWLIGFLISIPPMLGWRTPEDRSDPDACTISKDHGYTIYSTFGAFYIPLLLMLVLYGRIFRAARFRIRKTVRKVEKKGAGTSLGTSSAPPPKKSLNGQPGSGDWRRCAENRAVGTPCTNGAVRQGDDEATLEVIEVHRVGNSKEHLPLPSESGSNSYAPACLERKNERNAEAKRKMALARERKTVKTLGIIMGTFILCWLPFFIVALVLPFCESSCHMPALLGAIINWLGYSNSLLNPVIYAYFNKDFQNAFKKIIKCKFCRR
recordedMetric: IC50 (nM)

1. O=C(C1CCCCC1)N(CCN1CCN(c2cccc3[nH]ccc23)CC1)c1ccccn1 [Compound A3]	3.2
2. C[C@H](CN1CCN(c2cccc3[nH]ccc23)CC1)N(C(=O)C1CCCCC1)c1ccccn1 [Compound A1]	4.3

Measured values drawn from patent US5723464A for this set.
